# tested.target: T1, human GPC3 on CHO-K1-human GPC3 cells (CHOK1-hGPC3.2B5) (human, UniProt P51654 25-554)
# T1 construct: whole, on cells
# procedure.text: FACS, CHOK1-hGPC3.2B5 cells;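 note: flow cytometry of humanized antibodies binding to the cells over one hour in the cold, read as cell mean fluorescence intensity, with EC50 obtained by curve fitting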
Listed below: Max MFI values for each entry.
reported.metric: Max MFI (MFI)

[[record]]
binder = "hAb005LH2L1 (antibody, human IgG1, V domains shown, Humanized F3.54.12; VH H2 + VL L1; expressed as human IgG1) VH: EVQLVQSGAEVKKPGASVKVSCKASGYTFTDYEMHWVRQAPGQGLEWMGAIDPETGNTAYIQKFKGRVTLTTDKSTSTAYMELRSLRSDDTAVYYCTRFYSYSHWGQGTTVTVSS VL: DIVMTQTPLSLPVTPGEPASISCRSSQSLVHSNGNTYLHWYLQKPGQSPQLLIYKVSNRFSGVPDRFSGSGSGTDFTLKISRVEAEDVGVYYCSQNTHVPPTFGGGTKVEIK"
unit_label = "MFI"
meas_value = 4540

[[record]]
binder = "hAb003LH3L1 (antibody, human IgG1, V domains shown, Humanized F2.154.1; VH H3 + VL L1; expressed as human IgG1) VH: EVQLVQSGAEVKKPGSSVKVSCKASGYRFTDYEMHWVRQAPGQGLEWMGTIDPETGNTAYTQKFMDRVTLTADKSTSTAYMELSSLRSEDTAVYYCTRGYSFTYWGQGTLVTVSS VL: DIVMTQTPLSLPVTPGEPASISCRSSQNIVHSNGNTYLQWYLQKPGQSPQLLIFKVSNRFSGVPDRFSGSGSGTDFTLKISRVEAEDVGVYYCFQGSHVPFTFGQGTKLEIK"
unit_label = "MFI"
meas_value = 5040

[[record]]
binder = "hAb006LH3L1e (antibody, human IgG1, V domains shown, Humanized F3.38.7; VH H3 + VL L1e; expressed as human IgG1) VH: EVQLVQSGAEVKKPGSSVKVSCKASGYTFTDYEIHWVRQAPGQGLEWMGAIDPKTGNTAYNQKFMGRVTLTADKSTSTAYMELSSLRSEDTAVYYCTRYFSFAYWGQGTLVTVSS VL: DIVMTQTPLSLPVTPGEPASISCRSSQTFVHSNVNTYLQWYLQKPGQSPQLLIYKVSNRFSGVPDRFSGSGSGTDFTLKISRVEAEDVGVYYCFQGSHVPYTFGQGTKLEIK"
unit_label = "MFI"
meas_value = 15800

